- Assay: Relative chemical stability of cyclopropenes measured by 1H-NMR
- Format: physicochemical

{"Molecule": "C1=C(CCCCc2ccccc2)C1 [(4-Phenylbutyl), 1-(4-phenylbutyl)cyclopropene]", "chemical stability (in words)": "much more stable"}
{"Molecule": "C1=C(CCCc2ccccc2)C1 [(3-Phenylpropyl), 1-(3-phenylpropyl)cyclopropene]", "chemical stability (in words)": "much more stable"}
{"Molecule": "C1=C(CCCCCc2ccccc2)C1 [(5-Phenylpentyl), 1-(5-phenylpentyl)cyclopropene]", "chemical stability (in words)": "much more stable"}

---

- Assay: Relative chemical stability of cyclopropenes measured by 1H-NMR
- Assay type: physicochemical
- Assay Conditions: 1H-NMR, CDCl3, stored at −20° C. or room temperature; relative to chain length 1
Listed molecules paired with reported Stability (relative chemical stability, based on cyclopropenes having a chain length of 1)

{"Sample Smiles": "C1=C(CCCc2ccccc2)C1", "Assay Value": ">>10"}
{"Sample Smiles": "C1=C(Cc2ccccc2)C1", "Assay Value": 1}
{"Sample Smiles": "C1=C(CCCOc2ccccc2)C1", "Assay Value": ">>10"}
{"Sample Smiles": "C1=C(CCCCCc2ccccc2)C1", "Assay Value": ">>10"}
{"Sample Smiles": "C1=C(CCCCc2ccccc2)C1", "Assay Value": ">>10"}
{"Sample Smiles": "C1=C(CCCCOc2ccccc2)C1", "Assay Value": ">>10"}

Let us examine a further case.
Reported Stability (relative chemical stability, based on cyclopropenes having a chain length of 1), molecule `COc1ccc(CCC2=CC2)cc1` : ____
>10

---

- Assay: Relative chemical stability of cyclopropenes measured by 1H-NMR
- Format: physicochemical
- Assay Conditions: 1H-NMR, CDCl3, stored at −20° C. or room temperature; relative to chain length 1
Listed molecules paired with reported Stability (relative chemical stability, based on cyclopropenes having a chain length of 1)

Example entries begin here.
{"Molecule": "C1=C(CCc2ccccc2)C1 [(2-Phenylethyl), 1-(2-phenylethyl)cyclopropene]", "Assay Value": ">10"}
{"Molecule": "COc1ccc(CCCC2=CC2)cc1 [(3-(4-Methoxyphenyl)propyl)]", "Assay Value": ">>10"}

Let us examine a further case.
Reported Stability (relative chemical stability, based on cyclopropenes having a chain length of 1), molecule COc1ccc(CC2=CC2)cc1 [A=—, Z=4-OCH, 1-(4-methoxybenzyl)cyclopropene] : ____
~1
